Assay: physchem
Assay type: physicochemical
Details: water
Property label: solubility

compound="C[C@H]1NCc2cc(-c3ccc4c(=O)c(C(=O)O)cn(C5CC5)c4c3OC(F)F)ccc21 [des-quinolone, methanesulfonate monohydrate]" property_label=solubility reported_result="~17.4 mg/mL"

###

Experiment: physchem
Assay type: physicochemical
Conditions: aqueous buffer
Property label: solubility

compound="C[C@H]1NCc2cc(-c3ccc4c(=O)c(C(=O)O)cn(C5CC5)c4c3OC(F)F)ccc21 [des-quinolone, methanesulfonate monohydrate]" property_label=solubility reported_result="~70 µg/mL"
